system_under_test: BTK (Homo sapiens, UniProt Q06187)
Sequence (Q06187 402-655 limits assumed): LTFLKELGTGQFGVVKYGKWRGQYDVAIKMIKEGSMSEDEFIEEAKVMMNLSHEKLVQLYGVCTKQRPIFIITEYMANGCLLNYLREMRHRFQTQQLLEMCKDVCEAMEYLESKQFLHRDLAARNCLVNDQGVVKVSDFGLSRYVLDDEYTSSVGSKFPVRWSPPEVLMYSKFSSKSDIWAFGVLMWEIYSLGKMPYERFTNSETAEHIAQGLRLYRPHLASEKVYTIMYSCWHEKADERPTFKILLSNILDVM
experiment_summary: biochemical
reported_conditions: read-out: BTK inhibition (%), 0.75 uM BTK, […] probe 3l, 15 min preincubation
measured_parameter: inhibition at 10 µM (%)

• C=C1CCC[C@]2(C)Cc3occ(C)c3C[C@@H]12 = 2.3
• COc1cc(-c2oc3cc(O)cc(O)c3c(=O)c2O[C@@H]2O[C@H](CO[C@@H]3O[C@@H](C)[C@H](O)[C@@H](O)[C@H]3O)[C@@H](O)[C@H](O)[C@H]2O[C@@H]2O[C@@H](C)[C@H](O)[C@@H](O)[C@H]2O)ccc1O = 7.7
• CC(O)(P(=O)(O)O)P(=O)(O)O = -27.2
• CC(C)NCC(O)COc1cccc2ccccc12 (centres unmarked) = -12.5
• COc1ccc(C2(C#N)CCC(C(=O)O)CC2)cc1OC1CCCC1 (centres unmarked) = -29.6
• C=CC(C)(O)CCC=C(C)C (centres unmarked) = -9.3
• CCc1cc(Nc2nc(-c3ccc(-n4cnc(C)c4)c(F)c3)cs2)c(C)cc1C = 10
• Cc1cc(N2CCOCC2)cc2[nH]c(-c3c(NC[C@@H](O)c4cccc(Cl)c4)cc[nH]c3=O)nc12 = 109
• O=C(c1ccc(Oc2ccccc2)cc1Cl)c1c[nH]c2ncnc(N[C@@H]3CC[C@@H](CO)OC3)c12 = 116
• CCOc1cc(C(C)(C)C)ccc1C1=N[C@@](C)(c2ccc(Cl)cc2)[C@@](C)(c2ccc(Cl)cc2)N1C(=O)N1CCN(CCCS(C)(=O)=O)CC1 = 16.2
• O=C(Nc1cc(Cl)cc2c1[nH]c1cnccc12)c1cccnc1 = 12.4
• Cc1cc(O)cc(O[C@@H]2O[C@H](CO)[C@@H](O)[C@H](O)[C@H]2O)c1 = -10.1
• COc1ccc(S(=O)(=O)NCc2ccc(C(=O)NCCc3ccc(Cl)cn3)cc2)cc1 = -22.4
• Oc1ccc(OC2CCCCO2)cc1 (centres unmarked) = 11.7
• COc1cc2ncnc(Nc3ccc(Oc4ccccc4)cc3C)c2cc1OC = 110
• Nc1nc(NC2CC2)cc(-c2cccc(Cl)c2Cl)n1 = 28.6
• O=C1NC(=O)/C(=C/c2ccc3c(c2)OC(F)(F)O3)S1 = 9.7

---

Measured inhibition at 10 µM of individual entries
system_under_test: BTK (Homo sapiens, UniProt Q06187)
experiment_summary: biochemical
reported_conditions: read-out: BTK inhibition (%), 0.75 uM BTK, […] probe 3l, 15 min preincubation
measured_parameter: inhibition at 10 µM (%)

* CN1CC[C@@H](c2c(O)cc(O)c3c(=O)cc(-c4ccccc4Cl)oc23)[C@@H]1CO [PCM-0215197] | -5.5
* CCCCCCCCCCCCCCCC(=O)O[C@@H]1[C@@H](O)[C@@H](O)[C@@H]([C@H](NC(=O)[C@@H]2C[C@@H](CCC)CN2C)[C@H](C)Cl)O[C@@H]1SC [PCM-0215167] | 73.2
* OC[C@H]1O[C@@H](O[C@@H]2OC=C[C@H]3[C@H](O)[C@@H]4O[C@]4(CO)[C@@H]23)[C@H](O)[C@@H](O)[C@@H]1O [PCM-0215028] | 26.2
* Cc1cc(=O)oc2c([N+](=O)[O-])c(O)ccc12 [PCM-0216627] | 13.1
* CN1CCN(c2nc3ccccc3nc2Cl)CC1 [PCM-0095510] | -6.2
* CCCCOc1nc(N)c2c(n1)N(Cc1cccc(CN3CCCC3)c1)CC(=O)N2 [PCM-0215695] | 17
* C=C1CCN([C@H](C)[C@](O)(Cn2cncn2)c2ccc(F)cc2F)CC1 [PCM-0215992] | -13.1
* OC[C@H]1O[C@H](OC[C@H]2OC(O)[C@H](O)[C@@H](O)[C@@H]2O)[C@H](O)[C@@H](O)[C@H]1O (some centres unmarked) [PCM-0215071] | -21.8
* Cn1cnc([N+](=O)[O-])c1Sc1ncnc2nc[nH]c12 [PCM-0064491] | -4.8
* Cn1cc(-c2ccc3nnc(Sc4ccc5ncccc5c4)n3n2)cn1 [PCM-0094898] | -3.4
* Cc1cccc(Oc2cnc(=O)[nH]c2)c1 [PCM-0215674] | -17
* Cc1ccc(NC(=O)Nc2cc(C(F)(F)F)ccc2F)cc1Nc1ccc2c(c1)NC(=O)/C2=C\c1ccc[nH]1 [PCM-0215372] | 116
* Cc1cc(=O)oc2c(C=O)c(O)ccc12 [PCM-0215276] | 82.6
* O=c1[nH]c(=S)[nH]c2nc(-c3ccccc3)c(-c3ccccc3)nc12 [PCM-0215641] | 17
* COc1cc(-c2oc3cc(O)cc(O)c3c(=O)c2O[C@@H]2O[C@H](CO[C@@H]3O[C@@H](C)[C@H](O)[C@@H](O)[C@H]3O)[C@@H](O)[C@H](O)[C@H]2O)ccc1O [PCM-0216322] | 8.5
* Cc1cc(S(=O)(=O)O)c2c(C)ccc(C(C)C)cc1-2 [PCM-0216127] | 37.2
* NC(N)=NC(N)=NCCc1ccccc1 [PCM-0085798] | 4.1
* Cc1nc(NC(=O)N2CCC[C@H]2C(N)=O)sc1-c1csc(C(C)(C)C)n1 [PCM-0095518] | 7.6
* CCOc1cc2ncc(C#N)c(Nc3ccc(F)c(Cl)c3)c2cc1NC(=O)/C=C/CN(C)C [PCM-0095063] | 96.6
* CC(C)c1c2cc(-c3ccnc(NC4CCC(NC5CCOCC5)CC4)n3)ccc2nn1C (centres unmarked) [PCM-0215782] | 3.4
* C[C@H]1[C@H](C)CC[C@]2(C(=O)O)CC[C@]3(C)C(=CC[C@@H]4[C@@]5(C)CCC(=O)C(C)(C)[C@@H]5CC[C@]43C)[C@H]12 [PCM-0215048] | 7
* N#Cc1c(NC(=O)c2cccc3ccccc23)sc2c1CCCC2 [PCM-0095805] | 16.6
* CCc1c(C(=O)NCCc2ccc(N3CCCCC3)cc2)[nH]c2ccc(Cl)cc12 [PCM-0214697] | 2.3
* CCCCCC(=O)O[C@]1(C(C)=O)CC[C@H]2[C@@H]3CCC4=CC(=O)CC[C@]4(C)[C@H]3CC[C@@]21C [PCM-0214832] | -23.3
* CC(C)[C@H](NC(=O)c1ccc2ccccc2n1)C(=O)N[C@@H](CC(=O)O)C(=O)COc1c(F)cccc1F [PCM-0215598] | 7.7
* O=c1[nH]c2ccccc2n1CCCN1CCC(n2c(=O)[nH]c3cc(Cl)ccc32)CC1 [PCM-0065112] | 5.4
* O=C1C[C@@H](c2ccc(O)cc2)Oc2cc(O)ccc21 [PCM-0214979] | -9.3
* OC[C@H]1OC(O)[C@H](O)[C@@H](O)[C@H]1O (some centres unmarked) [PCM-0215038] | -23.3
* CC1(C)S[C@@H]2[C@H](NC(=O)[C@H](NC(=O)N3CCNC3=O)c3ccccc3)C(=O)N2[C@H]1C(=O)O [PCM-0095627] | 30.4
* C[C@H]1O[C@H](O[C@H]2[C@H](O)[C@@H](O)[C@@H](O[C@@H]([C@H](O)[C@@H](O)C=O)[C@H](O)CO)O[C@@H]2CO)[C@H](O)[C@@H](O)[C@@H]1N[C@H]1C=C(CO)[C@@H](O)[C@H](O)[C@H]1O [PCM-0214720] | -7
* Cc1cccn2c(=O)c(-c3nnn[nH]3)cnc12 [PCM-0086031] | -17
* CCOC(=O)c1cc(O)c(O)c(O)c1 [PCM-0216263] | 9.3

---

system_under_test: BTK (Homo sapiens)
experiment_summary: biochemical
reported_conditions: read-out: BTK inhibition (%), 0.75 uM BTK, […] probe 3l, 15 min preincubation
Where a SMILES comes first, the peptide text is derived from it. [ ]: non-standard residue; d: D form. pGlu = O=C1CC[C@@H](C(=O)O)N1; Thz = O=C(O)[C@@H]1CSCN1
measured_parameter: inhibition at 10 µM (%)

* O=C(NCCN1CCOCC1)c1ccc(Cl)cc1 [PCM-0064796] | -3.9
* CCCCCCCCCCC[C@@H](C[C@@H]1OC(=O)[C@H]1CCCCCC)OC(=O)[C@H](CC(C)C)NC=O [PCM-0095181] | -13.2
* C/C=C(/C)C(=O)O [PCM-0215002] | 14.5
* C=C(Cc1ccccc1Cl)C(=O)OCC [PCM-0215835] | -4.1
* CC(=O)O/N=C1/C(c2c(O)[nH]c3cc(Br)ccc23)=Nc2ccccc21 [PCM-0215536] | 60.7
* CCN(CCCc1ccccc1)CCCc1ccccc1 [PCM-0085793] | -8.6
* Cc1ccc2oc(=O)ccc2c1 [PCM-0215023] | -3.9
* O=C1CC[C@@H](C(=O)N2CSC[C@H]2C(=O)O)N1 [PCM-0090672] ([pGlu]-[Thz]-OH) | 11.7
* CC(C)(C)c1ccc(S(=O)(=O)NCc2ccc(C(=O)Nc3cccnc3)cc2)cc1 [PCM-0215545] | -2.3
* NNc1nnc(NN)c2ccccc12 [PCM-0215993] | 9.3
* CCc1c(C(=O)C(N)=O)c2c(OCC(=O)O)cccc2n1Cc1ccccc1 [PCM-0094894] | -16.3
* C[C@@H]1CCCC2=CC(=O)[C@@H]3[C@@H](C3(C)C)[C@]21C [PCM-0216523] | -8.5
* COc1ccc(O)cc1 [PCM-0090031] | 12.5
* CO[C@H]1C[C@@H]2CC[C@@H](C)[C@@](O)(O2)C(=O)C(=O)N2CCCC[C@H]2C(=O)O[C@H]([C@H](C)C[C@@H]2CC[C@@H](OCCO)[C@H](OC)C2)CC(=O)[C@H](C)/C=C(\C)[C@@H](O)[C@@H](OC)C(=O)[C@H](C)C[C@H](C)/C=C/C=C/C=C/1C [PCM-0214563] | -12.4
* CCOc1ccccc1OCCN[C@H](C)Cc1ccc(OC)c(S(N)(=O)=O)c1 [PCM-0214853] | 7
* COc1ccc(C[C@@H]2c3cc(OC)c(OC)cc3CC[N@+]2(C)CCC(=O)OCCCCCOC(=O)CC[N@@+]2(C)CCc3cc(OC)c(OC)cc3[C@H]2Cc2ccc(OC)c(OC)c2)cc1OC [PCM-0095290] | -8.6
* Nc1ncnc2c1ncn2[C@@H]1O[C@H](CO)C[C@H]1O [PCM-0101885] | 42

Measured values drawn from paper PMC8041284 for this set.
